tested on: K-562 leukemia; test: NCI-60 one-dose screen, 48 h; details: 10 µM unless noted
Compounds without any hit were thinned out: in the full panel of roughly 83,000, 20% have a hit. Calls of active or inactive are those of the source. How the source made its calls: active means growth percent below 10; inactive means the rest.
Your response should consist of one outcome taken from true (1) = active, false (0) = inactive

Prompt line: # lookup: test call for CC1(C(=O)O)CCC(N)(C(=O)O)C1(C)C (stereo unspecified)
Response line: false (0)

Prompt line: # lookup: test call for `CCN(CC)CCS(=O)(=O)CCNc1ccnc2cc(Cl)ccc12`
Response line: true (1)

Prompt line: # lookup: test call for `O=S(=O)(NCc1ccccc1)c1ncnc2nc[nH]c12`
Response line: false (0)

Prompt line: # lookup: test call for `Cc1cnc(N)nc1OCC(C)(C)CNC(=O)c1cccc(-c2ccc(S(=O)(=O)Nc3ccc4c(c3)N(C(=O)C3CC3)CCC4)cc2)c1`
Response line: false (0)

Prompt line: # lookup: test call for `O=[N+]([O-])c1cc(CCl)ccc1OCCBr`
Response line: false (0)

Prompt line: # lookup: test call for `Cc1cc(C)c(O)c(CNCCCCCCNCc2cc(C)cc(C)c2O)c1`
Response line: true (1)

Prompt line: # lookup: test call for `C=C(C)[C@@H]1CC[C@]2(COCCCN)CC[C@]3(C)[C@H](CC[C@@H]4[C@@](C)(CCCNCCCN)[C@H](C(=C)C)CC[C@]43C)[C@@H]12`
Response line: true (1)

Prompt line: # lookup: test call for `[2H]C1([2H])CCN(C(=O)C2CC2)c2cc(NS(=O)(=O)c3ccc(-c4cccc(C(N)=O)c4)cc3)ccc21`
Response line: false (0)

***
Prompt line: # lookup: test call for `Cc1ccc(-c2cc(-c3ccc(C)cc3)nc(N3CCN(CCNc4ccnc5cc(Cl)ccc45)CC3)n2)cc1`
Response line: false (0)

Prompt line: # lookup: test call for `CC(C)(C)OC(=O)N1C=C/C(=C\Cn2cc(-c3ccccc3)nn2)CC1`
Response line: false (0)

====

Test system: RPMI-8226 leukemia
Assay: NCI-60 one-dose screen, 48 h
Conditions: 10 µM unless noted
Procedure: Growth inhibition of the RPMI-8226 human tumor cell line is measured as a screen for anti-cancer activity. Cells are grown in 96 well plates and exposed to the test compound for 48 hours. Compounds are tested at a single concentration, which is 10^-5 M for most compounds. The reported endpoint is percent growth (GI% or GIPRCNT), where numbers from 0 - 100% represent growth inhibition, and numbers from -100% - 0 represent cell death. For example, a value of 40 represents 60% growth inhibition. […]
The panel holds about 83,000 compounds, 20% with a hit somewhere; the sample as a whole holds those more often. Calls of active or inactive are those of the source. The calls were made as follows: active = growth percent below 10; inactive = the rest.
Your response should consist of one outcome taken from active, inactive

Worked examples, 4 molecules total:
Prompt line: # lookup: test call for `C#CCC(C(=O)OCC)C(=O)OCC`
Response line: inactive

Prompt line: # lookup: test call for `CC(=O)OC[C@]12CC[C@@H]([C@@H](C)C(N)=O)[C@@H]1[C@H]1CC[C@@H]3[C@@]4(C)CC[C@H](OC(C)=O)C(C)(C)[C@@H]4CC[C@@]3(C)[C@]1(C)CC2`
Response line: active

Prompt line: # lookup: test call for `Cc1ccc(NCCN2CCCCC2)c2c(=O)c3ccccc3sc12`
Response line: active

Prompt line: # lookup: test call for `Cc1ccc(-c2cc(O)c(-c3ccc(C)cc3C)cc2O)c(C)c1`
Response line: inactive

***
Prompt line: # lookup: test call for `COc1ncnc2c(-c3ccccc3)cn(COCc3ccccc3)c12`
Response line: inactive
